Entries and their measured EC50 follow.
Target: GST tagged LXRbeta LBD (ligand binding domain) (Homo sapiens)
Construct: purchased Invitrogen pv4658.pps
Sequence (P55055 222-460 limits assumed): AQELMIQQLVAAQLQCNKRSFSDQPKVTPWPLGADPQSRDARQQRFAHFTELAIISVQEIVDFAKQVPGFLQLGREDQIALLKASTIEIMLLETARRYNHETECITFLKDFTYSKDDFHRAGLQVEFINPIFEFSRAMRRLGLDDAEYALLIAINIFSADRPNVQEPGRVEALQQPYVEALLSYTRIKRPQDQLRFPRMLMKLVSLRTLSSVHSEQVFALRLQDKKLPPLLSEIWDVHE
Experiment: LanthaScreen TR-FRET Liver X Receptor Coactivator Assay, LXR beta-LBD
Assay type: biochemical
Details: Inflection Point (potency), co-activator recruitment, relative to reference T0901317; read-out: LXR beta IP
Number first, unit second: that is the form wanted.

>>> data_value("CN(C)C(=O)c1ccc(N2CCC(C3CCN(C(=O)C(O)(CCc4ccccc4)C(F)(F)F)CC3)CC2)cc1Cl (stereo not drawn) [Example A-49]")
"429 nM"

Task: Give its EC50 value. Item: O=C(c1ccc(N2CCC(C3CCN(C(=O)[C@](O)(c4ccccc4)C(F)(F)F)CC3)CC2)cc1Cl)N1CCCC1C1CC1 (stereo partly drawn) [Example E-57]
Output: 134 nM

Task: Give its EC50 value. Item: CN(C)C(=O)c1ccc(N2CCC(C3CCN(C(=O)c4c(F)cccc4F)CC3)CC2)cc1Cl [Example A-23]
Output: 79 nM

Task: Give its EC50 value. Item: CN(C)C(=O)c1ccc(N2CCC(C3CCN(C(=O)C(O)(C(C)(C)C)C(F)(F)F)CC3)CC2)cc1Cl (racemic) [Example A-4]
Output: 29 nM

Task: Give its EC50 value. Item: CC1CCCN1C(=O)c1ccc(N2CCC(C3CCN(C(=O)[C@](O)(c4ccccc4)C(F)(F)F)CC3)CC2)cc1Cl (stereo partly drawn) [Example E-25]
Output: 332 nM

Task: Give its EC50 value. Item: CN(Cc1ccno1)C(=O)c1ccc(N2CCC(C3CCN(C(=O)[C@](O)(c4ccccc4)C(F)(F)F)CC3)CC2)cc1Cl [Example E-50]
Output: 349 nM

Task: Give its EC50 value. Item: CN(C)C(=O)c1ccc(N2CCC(C3CCN(C(=O)C(O)(c4ccccc4)C(F)(F)C(F)(F)C(F)(F)F)CC3)CC2)cc1Cl (stereo not drawn) [Example A-54]
Output: 410 nM

Task: Give its EC50 value. Item: O=C(c1ccc(N2CCC(C3CCN(C(=O)[C@](O)(c4ccccc4)C(F)(F)F)CC3)CC2)cc1Cl)N1CCC1CO (stereo partly drawn) [Example E-46]
Output: 395 nM

Task: Give its EC50 value. Item: CC(C)C(O)(C(=O)N1CCC(C2CCN(c3cc(Cl)c(C(=O)N(C)C)c(Cl)c3)CC2)CC1)C(F)(F)F (stereo not drawn) [Example A-34]
Output: 119 nM

Task: Give its EC50 value. Item: CCCC(O)(C(=O)N1CCC(C2CCN(c3ccc(C(=O)N(C)C)c(Cl)c3)CC2)CC1)C(F)(F)F (stereo not drawn) [Example A-84]
Output: 173 nM

Task: Give its EC50 value. Item: CN(C)C(=O)c1ccc(N2CCC(C3CCN(C(=O)C4(c5ccccc5Cl)CCCC4)CC3)CC2)cc1Cl [Example A-94]
Output: 13 nM

Task: Give its EC50 value. Item: CCC1CCN(C(=O)c2ccc(N3CCC(C4CCN(C(=O)[C@](O)(c5ccccc5)C(F)(F)F)CC4)CC3)cc2Cl)C1 (stereo partly drawn) [Example E-29]
Output: 383 nM
